Tested on: SARS-CoV-2 isolate USA-WA1/2020
Experiment: microbe, parasite or virus in culture
Format: cell-based
Condition Description: tested at 0.4 × CC50, or at 50 µM if CC50 higher than 100 µM; A549/ACE2/TMPRSS2
Quantity: anti-SARS-CoV-2 activity (in words)

>>> df
                                   compound       endpoint_value
0  CC#CC(=O)Nc1cccc2c1cc(C)n2-c1nc2c(c(NCc3ccccc3)n1)COCC2 [Compound 6b, reference compound]   minimal inhibition
1  C=CC(=O)Nc1cccc2c1cc(C)n2-c1nc(NCc2ccccc2)cc(C2CCCCC2)n1 [Compound 10b]     markedly reduced
2  C=CC(=O)Nc1cccc2c1cc(C)n2-c1nc(NCc2ccccc2)cc(N2CCCCC2)n1     markedly reduced
3  C=CS(=O)(=O)Nc1cccc2c1cc(C)n2-c1nc(NCc2ccccc2)cc(C2CCCCC2)n1 [Compound 10c]  marginal inhibition
4  Cc1cc(OCc2nnc(SC3CCCC3)n2-c2cccnc2)ccc1-c1ccc(S(C)(=O)=O)cc1 [NMS-873, reference compound]   minimal inhibition
5  C=CS(=O)(=O)Nc1cccc2c1cc(C)n2-c1nc(NCc2ccccc2)cc(N2CCCCC2)n1  marginal inhibition
6  CC#CC(=O)Nc1cccc2c1cc(C)n2-c1nc2c(c(NCc3ccccc3)n1)CCCC2 [Compound 6a, reference compound]   minimal inhibition

----------
Experiment: Cell viability assay (MTS) in non-infected cells
Condition Description: human
Quantity: CC50 at 48 h

In [3]: df
Out[3]:
                                   molecule      quantity  endpoint_value
0  Cc1cc(OCc2nnc(SC3CCCC3)n2-c2cccnc2)ccc1-c1ccc(S(C)(=O)=O)cc1 [NMS-873, reference compound]  CC50 at 48 h          4.1 µM
1  Cc1cc2c(C(N)=O)cccc2n1-c1nc2c(c(NCc3ccccc3)n1)COCC2 [CB-5083, reference compound]  CC50 at 48 h         0.95 µM
2  CC#CC(=O)Nc1cccc2c1cc(C)n2-c1nc(NCc2ccccc2)cc(N2CCOCC2)n1 [Compound 8a]  CC50 at 48 h          2.4 µM
3  C=CS(=O)(=O)Nc1cccc2c1cc(C)n2-c1nc(NCc2ccccc2)cc(C2CCCCC2)n1 [Compound 10c]  CC50 at 48 h           12 µM

----------
Catalogue of compounds with associated CC50 at 48 h
Experiment: Cell viability assay (MTS) in non-infected cells
Condition Description: human

Compound	CC50 at 48 h
CC#CC(=O)Nc1cccc2c1cc(C)n2-c1nc(NCc2ccccc2)cc(N2CCCCC2)n1 [Compound 9a]	76 µM
CCC(CC)COC(=O)[C@H](C)N[P@](=O)(OC[C@H]1O[C@@](C#N)(c2ccc3c(N)ncnn23)[C@H](O)[C@@H]1O)Oc1ccccc1 [remdesivir, reference compound]	> 10 µM
CC#CC(=O)Nc1cccc2c1cc(C)n2-c1nc(NCc2ccccc2)cc(C2CCCCC2)n1 [Compound 10a]	> 100 µM
C=CC(=O)Nc1cccc2c1cc(C)n2-c1nc(NCc2ccccc2)cc(N2CCOCC2)n1 [Compound 8b]	5.2 µM
C=CC(=O)Nc1cccc2c1cc(C)n2-c1nc(NCc2ccccc2)cc(C2CCCCC2)n1 [Compound 10b]	> 100 µM
C=CS(=O)(=O)Nc1cccc2c1cc(C)n2-c1nc(NCc2ccccc2)cc(N2CCCCC2)n1 [Compound 9c]	15 µM
C=CS(=O)(=O)Nc1cccc2c1cc(C)n2-c1nc(NCc2ccccc2)cc(N2CCOCC2)n1 [Compound 8c]	5.2 µM
